This collection of values is drawn from PubChem BioAssay (NCI).

Tested on: NCI/ADR-RES ovarian
assayComment: NCI tumour cell line growth inhibition, 48 h
Entries annotated with measured TGI
measuredQuantity: TGI

compoundsmiles=O=C(CCN1CCCC1)Nc1ccc2c(NCCc3ccccc3)c3ccccc3nc2c1 assayvalue="> 62.9 µM"
compoundsmiles=OCCn1cc(-c2cnc3nnn(Cc4ccc5ncccc5c4)c3n2)cn1 assayvalue="> 100 µM"
compoundsmiles=COc1ccc2c(c1)[nH]c(=O)c1c3cc(OC)c(OC)cc3cn21 assayvalue="< 0.0133 µM"

###

Test system: NCI/ADR-RES ovarian
assayComment: NCI tumour cell line growth inhibition, 48 h
Entries annotated with measured GI50
measuredQuantity: GI50

compound=COc1cc(/C(=C2/O[C@@H]([C@H]3COC(C)(C)O3)[C@H]3OC(C)(C)O[C@@H]23)c2ccc3c(c2)OCO3)cc(OC)c1OC assayvalue="> 25 µM"
compound=Cc1cc(NCc2cc(Nc3ccnc4cc(Cl)ccc34)ccc2F)nc(N2CCSCC2)n1 assayvalue="1.55 µM"
compound=CN1CCN(c2ccc3nc(-c4[nH]ncc4Nc4ncnc5c4OCCCN5)[nH]c3c2)CC1 assayvalue="0.28 µM"
compound=CC(=O)Nc1ccc(-c2csc(Nc3cccc(-c4csc(-c5ccccc5)n4)c3)n2)cc1 assayvalue="17.5 µM"
compound=COc1ccc2c(c1)C(=O)c1c-2c(N2CCN(C(=O)CNCCN(C)C)CC2)nc2ccccc12 assayvalue="4.28 µM"
compound=CNC(=O)c1cc(Oc2ccc3nc(N[C@@H]4CCCC[C@H]4O)sc3c2)ccn1 assayvalue="49.2 µM"
compound=O=C(Oc1ccccc1Cl)c1ccccc1Nc1cccc(C(F)(F)F)c1 assayvalue="19 µM"
compound=O=C(Cn1c(C(=O)c2ccc(Cl)cc2)nc(-c2ccccc2)c1-c1ccccc1)c1ccc(Cl)cc1 assayvalue="> 100 µM"
compound=O=C(CCN1CCCC1)Nc1ccc2c(NCCc3ccccc3)c3ccccc3nc2c1 assayvalue="12 µM"
compound="CCCCCCCCCCCC1=NC(C)(C)CN1CC(C)O (stereo not given)" assayvalue="11.8 µM"
compound=CN(C)c1ccc(Nc2c3ccccc3nc3cc(NC(=O)CCN4CCCC4)ccc23)cc1 assayvalue="2.91 µM"
compound=CCOC(=O)c1ccc(N(C=O)CCC(=O)CCl)cc1 assayvalue="0.393 µM"
compound="O=C1CC(c2ccsc2)c2snc(-c3ccc(Cl)cc3)c2N1 (stereo not given)" assayvalue="0.364 µM"
compound=O=C1/C(=C/c2ccc(Cl)cc2)CN(C(=O)CCN2CCC(=NO)CC2)C/C1=C\c1ccc(Cl)cc1 assayvalue="0.93 µM"
compound=O=c1c2c(=NCCN3CCCC3)cc3c(=O)n(CCCN4CCOCC4)c(=O)c4ccc(c(O)n1CCCN1CCOCC1)c2c4-3 assayvalue="0.166 µM"

###

Tested on: NCI-H226 lung
assayComment: NCI tumour cell line growth inhibition, 48 h
measuredQuantity: TGI

molecule="O=C(CC(c1ccccc1)C(C(=O)c1ccncc1)C(CC(=O)c1ccncc1)c1ccccc1)c1ccncc1 (stereo not drawn)" measuredquantity=TGI assayvalue="> 100 µM"
molecule=N#CCc1nc2cc(C(F)(F)F)ccc2s1 measuredquantity=TGI assayvalue="> 100 µM"
molecule="COC12C=CC(CC1)C(C)(C)C2OS(C)(=O)=O (stereo not drawn)" measuredquantity=TGI assayvalue="> 100 µM"

###

System: HS 578T breast
assayComment: NCI tumour cell line growth inhibition, 48 h
measuredQuantity: TGI

compoundsmiles=Nc1ccccc1OCCCOc1ccccc1N assayvalue="> 100 µM"
compoundsmiles=O=C1NC(=O)[C@@H](c2c[nH]c3ccccc23)[C@@H]1c1c[nH]c2ccccc12 assayvalue="> 25 µM"
compoundsmiles=O=C1CCCCN1C(=O)c1ccc([N+](=O)[O-])cc1 assayvalue="> 100 µM"
compoundsmiles=CCC(=O)N1C(=O)C(CC)(CC)C(=O)N1C(=O)CC assayvalue="> 100 µM"
compoundsmiles=CCOC(=O)Cn1c(-c2nonc2NC(=O)c2ccccc2F)nc2ccccc21 assayvalue="> 100 µM"

###

Entries annotated with measured GI50
System: NCI-H23 lung
assayComment: NCI tumour cell line growth inhibition, 48 h
measuredQuantity: GI50

compound=CCCCCCCCCCC[C@@H](C[C@H]1OC(=O)[C@H]1CCCCCC)OC(=O)[C@@H](CC(C)C)NC=O measuredquantity=GI50 assayvalue="7.19 µM"
compound=C[C@@H](Oc1cc(-n2cnc3ccc(OCC4CCN(C)CC4)cc32)sc1C(N)=O)c1ccccc1Cl measuredquantity=GI50 assayvalue="0.103 µM"
compound=COc1cc(C(=O)O/N=C(\N)Cc2cccc3ccccc23)cc(OC)c1OC measuredquantity=GI50 assayvalue="11.4 µM"
compound=COc1ccc(/C=N\NC(=O)c2ccc3nc(-c4ccc(Cl)cc4)[nH]c3c2)cc1 measuredquantity=GI50 assayvalue="2.74 µM"
compound="CCCCCCCCCCCC1=NC(C)(C)CN1CC(C)O (configuration not stated)" measuredquantity=GI50 assayvalue="4.36 µM"
compound=COc1cnc2c(c1)C(=O)c1c-2n(CCCNCCN2CCOCC2)c(=O)c2cc([N+](=O)[O-])ccc12 measuredquantity=GI50 assayvalue="0.152 µM"
compound=COc1cc(/C(=C2/O[C@@H]([C@H]3COC(C)(C)O3)[C@H]3OC(C)(C)O[C@@H]23)c2ccc3c(c2)OCO3)cc(OC)c1OC measuredquantity=GI50 assayvalue="> 25 µM"

###

System: MALME-3M melanoma
assayComment: NCI tumour cell line growth inhibition, 48 h; in the data active = GI50 below about 0.43 µM; inactive = the rest
Classes used: 1 for active, -1 for inactive

compound=CCSc1ccc([C@@H]2[C@@H](N)C(=O)N2c2cc(OC)c(OC)c(OC)c2)cc1 subjectoftest="MALME-3M melanoma" classification=-1
compound=O=C(O)c1cn(C2CC2)c2cc(N3CCNCC3)c(F)cc2c1=O subjectoftest="MALME-3M melanoma" classification=-1
compound="O=C1CC(c2ccsc2)c2snc(-c3ccc(Cl)cc3)c2N1 (centres undefined)" subjectoftest="MALME-3M melanoma" classification=-1
compound=Cc1ccc2nc3c(n2c1)C(=O)C(=O)c1ccccc1-3 subjectoftest="MALME-3M melanoma" classification=1

###

Entries annotated with measured TGI
Tested on: SK-MEL-28 melanoma
assayComment: NCI tumour cell line growth inhibition, 48 h
measuredQuantity: TGI

compound="CCN(CC)C1Oc2cc3c(cc2C(c2cccc(OC)c2O)C1C)OCO3 (stereo not drawn)" assayvalue="42.2 µM"
compound=COc1ccc(-c2nnc(SCC(=O)Nc3ccc(C(=O)/C=C/c4cc(OC)c(OC)c(OC)c4)cc3)n2-c2ccccc2)cc1OC assayvalue="> 10 µM"
compound=Cc1ccc(C#CS(=O)(=O)C(F)(F)F)cc1 assayvalue="> 100 µM"
compound=Fc1ccc([C@@H]2CCNC[C@H]2COc2ccc3c(c2)OCO3)cc1 assayvalue="19 µM"
compound="COc1ccc(C2C(C#N)=C(S)N(C3OC(CO)C(O)C(O)C3O)C(C)=C2C(C)=O)cc1 (stereo not drawn)" assayvalue="> 100 µM"
compound=Nc1nc(-c2ccc(Cl)cc2)cc(-c2ccc(Cl)cc2)c1-c1nc2ccccc2o1 assayvalue="34.3 µM"
compound=O=C(Nc1ccc(Oc2ccc(NC(=O)Nc3ccc([N+](=O)[O-])cc3)cc2)cc1)Nc1ccc([N+](=O)[O-])cc1 assayvalue="43.2 µM"
compound=O=C(CSCC(=O)N/N=C\c1ccccc1F)N/N=C\c1ccccc1F assayvalue="> 100 µM"
compound="OCC1OC(c2ccccc2)CC1O (stereo not drawn)" assayvalue="> 100 µM"
compound=COc1ccc2c(c1)[nH]c(=O)c1c3cc(OC)c(OC)cc3cn21 assayvalue="18.2 µM"
compound="CC(=O)OCC1OC(n2c(N)c(C#N)c(-c3cccc(Cl)c3)c(C#N)c2=S)C(OC(C)=O)C(OC(C)=O)C1OC(C)=O (stereo not drawn)" assayvalue="> 100 µM"
compound="CCCCCCCCNC(C)C(O)c1ccc(SC(C)C)cc1 (stereo not drawn)" assayvalue="3.27 µM"
compound="O=C(NN1C(=O)C(Cl)C1c1ccccc1Cl)c1ccccc1O (stereo not drawn)" assayvalue="> 100 µM"
compound=O=C(NO)c1ccc(Cn2c(=O)n(-c3ccccc3)c(=O)c3ccccc32)cc1 assayvalue="2.93 µM"
compound=Cc1cccc(C(C)C)c1NC(=O)CCl assayvalue="> 100 µM"
compound=COc1ccc2c(c1)C(=O)c1c-2c(N2CCN(C(=O)CNCCN(C)C)CC2)nc2ccccc12 assayvalue="3.04 µM"
compound="CN(C(=O)C12C3C4C1C1C2C3C41C(O)C(C)(C)C)C(C)(C)C (stereo not drawn)" assayvalue="> 100 µM"
compound=Cc1ccc(NC(=O)/C(=N/NC(=O)C[N+](C)(C)C)c2nc3ccccc3[nH]c2=O)cc1 assayvalue="> 100 µM"
compound=CNc1ccc([N+](=O)[O-])c2c(NCCCN(C)C)ccnc12 assayvalue="> 100 µM"
compound="O=C1O[C@H]2C3C4CCC(C4[C@@H]2I)[C@H]13 (stereo partly drawn)" assayvalue="> 100 µM"
compound=CC(C)(C)OC(=O)n1c(Cl)c(C=O)c2ccccc21 assayvalue="> 100 µM"
compound=COc1ccc(CCCN2c3ccccc3Sc3ccccc32)cc1 assayvalue="> 100 µM"
compound="CCC(C)c1cccc(C)c1NC(=O)C(=O)Cc1nc2ccccc2s1 (stereo not drawn)" assayvalue="> 100 µM"
compound="CC(=O)O[C@H]1C[C@](C)(O)[C@@]23CC([C@@H](OC(=O)C(C)(C)O)[C@@H](OC(C)=O)C2(COC(=O)c2ccccc2)[C@H]1OC(C)=O)C(C)(C)O3 (stereo partly drawn)" assayvalue="> 100 µM"
compound=Oc1ccc2ccccc2c1N=Nc1ccc(Cl)cc1 assayvalue="> 100 µM"
compound=O=C1NC(=O)[C@@H](c2c[nH]c3ccccc23)[C@@H]1c1c[nH]c2ccccc12 assayvalue="> 25 µM"
compound=O=C(Cn1c(C(=O)c2ccc(Cl)cc2)nc(-c2ccccc2)c1-c1ccccc1)c1ccc(Cl)cc1 assayvalue="> 100 µM"
compound="CCOc1ccc(NCC2CC/C(=C\\c3ccc(Cl)cc3)C2=O)cc1 (stereo not drawn)" assayvalue="> 100 µM"
compound="N#Cc1ccc(C2Oc3ccc(Cl)cc3C=C2[N+](=O)[O-])cc1 (stereo not drawn)" assayvalue="3.31 µM"
compound=O=C1C=C(O)c2c(O)ccc(O)c2C1=O assayvalue="> 100 µM"
compound=O=c1[nH]nc(Cc2ccc(Cl)cc2)n1/N=C/c1c[nH]c2ccccc12 assayvalue="> 100 µM"
compound=C[C@@H](Oc1cc(-n2cnc3ccc(OCC4CCN(C)CC4)cc32)sc1C(N)=O)c1ccccc1Cl assayvalue="4.62 µM"
compound=Cc1ccc(/C=C/C(=O)c2ccc([N+](=O)[O-])cc2)cc1 assayvalue="> 100 µM"
